ASSAY: In vitro blood-brain barrier permeability (PBL artificial membrane)
Assay type: in vitro ADME
CONDITIONS: PAMPA; PBL membrane, PBS pH=7.4, 120 min, room temperature; read-out: Pe
MEASURED_PROPERTY: Papp at 120 min, 0.1 mg/ml (×10⁻⁶ cm/s)
Dear colleague, please return just the value in ×10⁻⁶ cm/s, with no unit written.

IN: Answer with the recorded Papp at 120 min, 0.1 mg/ml of O=C(CCCCC1CCSS1)NC1CCC(Nc2cccc3cnccc23)CC1 (stereo not shown) [PT109] only.
OUT: 11.9

----------
SYSTEM_UNDER_TEST: SGK (SGK1) (Homo sapiens)
Construct: IC50; other: SGK (SGK1); other: 10 μM, average of duplicates; SGK (SGK1)
Sequence (O00141 whole entry S422D, form open): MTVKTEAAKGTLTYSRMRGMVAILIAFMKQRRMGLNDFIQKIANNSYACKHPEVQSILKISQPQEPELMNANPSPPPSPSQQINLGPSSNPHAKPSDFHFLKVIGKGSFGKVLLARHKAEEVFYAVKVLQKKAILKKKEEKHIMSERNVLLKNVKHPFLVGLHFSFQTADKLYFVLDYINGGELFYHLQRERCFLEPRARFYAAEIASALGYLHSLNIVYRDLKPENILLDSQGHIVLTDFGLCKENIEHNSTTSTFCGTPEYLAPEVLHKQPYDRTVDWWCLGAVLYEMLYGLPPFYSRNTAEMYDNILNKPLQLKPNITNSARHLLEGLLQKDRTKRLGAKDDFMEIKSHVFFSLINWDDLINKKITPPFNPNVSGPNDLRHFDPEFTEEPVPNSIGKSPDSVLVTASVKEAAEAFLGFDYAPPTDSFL
ASSAY: Kinase screening service (Life Technologies): SGK1
Type: biochemical
CONDITIONS: SGK (SGK1)
MEASURED_PROPERTY: IC50 (µM)
Use µM as the unit, but write only the number.

IN: Identify IC50 associated with the compound O=C(CCCCC1CCSS1)NC1CCC(Nc2cccc3cnccc23)CC1 (stereo not shown)
OUT: 1.34

----------
Target protein (sequence): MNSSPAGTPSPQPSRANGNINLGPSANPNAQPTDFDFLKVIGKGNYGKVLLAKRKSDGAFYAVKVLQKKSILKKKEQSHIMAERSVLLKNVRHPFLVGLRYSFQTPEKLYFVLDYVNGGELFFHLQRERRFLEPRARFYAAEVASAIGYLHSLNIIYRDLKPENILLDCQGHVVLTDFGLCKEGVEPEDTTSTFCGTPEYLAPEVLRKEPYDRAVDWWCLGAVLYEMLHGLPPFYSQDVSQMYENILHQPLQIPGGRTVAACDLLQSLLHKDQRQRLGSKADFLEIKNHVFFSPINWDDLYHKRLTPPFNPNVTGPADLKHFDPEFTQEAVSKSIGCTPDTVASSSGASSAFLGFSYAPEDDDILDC
MEASURED_PROPERTY: pIC50
# pIC50: negative log10 of molar concentration; output just the value

IN: Output pIC50 of O=C(CCCCC1CCSS1)NC1CCC(Nc2cccc3cnccc23)CC1 (stereo not shown)
OUT: 5.25

----------
SYSTEM_UNDER_TEST: SGK3 (Homo sapiens)
Sequence (Q96BR1 whole entry): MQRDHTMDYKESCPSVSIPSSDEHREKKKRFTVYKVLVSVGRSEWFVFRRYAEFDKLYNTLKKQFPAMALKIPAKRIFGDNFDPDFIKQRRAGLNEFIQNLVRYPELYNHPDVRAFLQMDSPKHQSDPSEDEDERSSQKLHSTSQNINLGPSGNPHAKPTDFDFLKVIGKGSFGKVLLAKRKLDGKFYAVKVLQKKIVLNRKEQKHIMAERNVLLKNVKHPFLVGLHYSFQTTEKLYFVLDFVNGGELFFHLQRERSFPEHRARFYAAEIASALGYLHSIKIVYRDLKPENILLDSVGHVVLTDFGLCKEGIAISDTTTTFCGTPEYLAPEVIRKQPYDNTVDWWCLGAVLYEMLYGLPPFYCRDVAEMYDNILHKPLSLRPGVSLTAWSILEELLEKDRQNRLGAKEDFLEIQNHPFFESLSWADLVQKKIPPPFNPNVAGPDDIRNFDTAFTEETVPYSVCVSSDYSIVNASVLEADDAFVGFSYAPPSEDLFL
MEASURED_PROPERTY: pIC50
# reply with the number alone; pIC50 is -log10 of concentration in mol/L

IN: Write down measured pIC50 (SGK3 (Homo sapiens)) for this compound. O=C(CCCCC1CCSS1)NC1CCC(Nc2cccc3cnccc23)CC1 (stereo not shown) [PT109]
OUT: 4.58

----------
SYSTEM_UNDER_TEST: MAPK8 (JNK1) (Homo sapiens, UniProt P45983)
Sequence (P45983 whole entry): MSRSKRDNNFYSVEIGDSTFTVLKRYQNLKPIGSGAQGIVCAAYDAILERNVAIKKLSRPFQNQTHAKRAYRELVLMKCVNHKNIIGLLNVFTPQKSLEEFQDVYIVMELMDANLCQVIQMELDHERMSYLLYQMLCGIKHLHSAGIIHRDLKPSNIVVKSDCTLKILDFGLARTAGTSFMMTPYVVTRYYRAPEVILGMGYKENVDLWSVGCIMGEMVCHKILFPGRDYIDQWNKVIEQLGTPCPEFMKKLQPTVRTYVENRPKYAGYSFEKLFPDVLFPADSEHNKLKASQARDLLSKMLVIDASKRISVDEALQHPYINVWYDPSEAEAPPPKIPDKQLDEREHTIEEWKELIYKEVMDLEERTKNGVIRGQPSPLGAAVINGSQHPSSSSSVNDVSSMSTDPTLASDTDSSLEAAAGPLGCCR
MEASURED_PROPERTY: IC50
Write the numeric value and follow it with the unit.

IN: Give IC50; test system MAPK8 (JNK1) (Homo sapiens, UniProt P45983); compound O=C(CCCCC1CCSS1)NC1CCC(Nc2cccc3cnccc23)CC1 (stereo not shown)
OUT: 143 nM
